Target: ER beta (Homo sapiens, UniProt Q92731)
Sequence (Q92731 whole entry): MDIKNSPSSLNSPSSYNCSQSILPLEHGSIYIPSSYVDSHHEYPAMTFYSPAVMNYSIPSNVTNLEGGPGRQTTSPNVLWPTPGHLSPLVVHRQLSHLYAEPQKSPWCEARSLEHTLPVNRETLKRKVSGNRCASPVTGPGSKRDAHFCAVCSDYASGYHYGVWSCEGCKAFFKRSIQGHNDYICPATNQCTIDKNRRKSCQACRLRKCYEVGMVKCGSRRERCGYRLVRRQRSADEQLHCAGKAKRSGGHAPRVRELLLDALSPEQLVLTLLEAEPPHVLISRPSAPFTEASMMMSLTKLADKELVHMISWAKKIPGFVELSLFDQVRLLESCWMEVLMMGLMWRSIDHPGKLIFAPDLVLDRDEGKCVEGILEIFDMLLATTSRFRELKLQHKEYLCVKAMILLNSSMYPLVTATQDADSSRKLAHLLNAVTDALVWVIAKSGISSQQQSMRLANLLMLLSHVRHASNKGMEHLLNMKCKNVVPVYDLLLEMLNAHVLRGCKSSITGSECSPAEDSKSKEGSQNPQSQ
Assay: competition binding assay against a model linear peptide sequence (estrogen receptor-coactivator interaction), ER beta
Conditions: competition binding assay (Lilly Research Labs); read-out: Ki ER β
Positions of bridges follow the written chain, without caps; N, C: chain ends. Non-standard residues stand in square brackets, D forms with d. Residues, ends and D or L forms follow the SMILES beside them. Pen = CC(C)(S)[C@H](N)C(=O)O; d(hCys) = N[C@H](CCS)C(=O)O
quantity_kind: Ki (nM)

# compound, subject_of_test, quantity_kind, readout_number
measured = [
    ("CC[C@H](C)[C@@H]1NC(=O)[C@H](NC(=O)[C@H](CC(C)C)NC(=O)[C@H](CC(C)C)NC(=O)[C@@H](N)CCCCN)CSSC[C@@H](C(=O)N[C@@H](CCCNC(=N)N)C(=O)N[C@@H](CC(C)C)C(=O)N[C@@H](CC(C)C)C(=O)N[C@@H](CCC(N)=O)C(N)=O)NC(=O)[C@H](CC(C)C)NC1=O [AKG-I-46] (H-KLL[dC]ILCRLLQ-NH2; disulfide 4-7)", "ER beta (Homo sapiens, UniProt Q92731)", "Ki", 2000),
    ("CC[C@H](C)[C@@H]1NC(=O)[C@H](NC(=O)[C@H](CCCCN)NC(C)=O)CSSC[C@@H](C(=O)N[C@@H](CCCNC(=N)N)C(=O)N[C@@H](CC(C)C)C(=O)N[C@@H](CC(C)C)C(=O)N[C@@H](CCC(N)=O)C(N)=O)NC(=O)[C@H](CC(C)C)NC1=O [AML-I-71/2] (Ac-K[dC]ILCRLLQ-NH2; disulfide 2-5)", "ER beta (Homo sapiens, UniProt Q92731)", "Ki", 7700),
    ("CC[C@H](C)[C@@H]1NC(=O)[C@H](NC(=O)[C@@H](N)CCCNC(=N)N)CSSC[C@@H](C(=O)N[C@@H](CCCNC(=N)N)C(=O)N[C@@H](CC(C)C)C(=O)N[C@@H](CC(C)C)C(=O)N[C@@H](CCC(N)=O)C(N)=O)NC(=O)[C@H](CC(C)C)NC1=O [AKG-I-50] (H-R[dC]ILCRLLQ-NH2; disulfide 2-5)", "ER beta (Homo sapiens, UniProt Q92731)", "Ki", 77),
    ("CC[C@H](C)[C@@H]1NC(=O)[C@H](NC(=O)[C@@H](N)CCCNC(=N)N)CSSC(C)(C)[C@@H](C(=O)N[C@@H](CCCNC(=N)N)C(=O)N[C@@H](CC(C)C)C(=O)N[C@@H](CC(C)C)C(=O)N[C@@H](CCC(N)=O)C(N)=O)NC(=O)[C@H](CC(C)C)NC1=O [AKG-II-10] (H-R[dC]IL[Pen]RLLQ-NH2; disulfide 2-5)", "ER beta (Homo sapiens, UniProt Q92731)", "Ki", 1910),
    ("CC[C@H](C)[C@@H]1NC(=O)[C@H](NC(=O)[C@@H](N)CCCNC(=N)N)CCSSC[C@@H](C(=O)N[C@@H](CCCNC(=N)N)C(=O)N[C@@H](CC(C)C)C(=O)N[C@@H](CC(C)C)C(=O)N[C@@H](CCC(N)=O)C(N)=O)NC(=O)[C@H](CC(C)C)NC1=O [AKG-II-4] (H-R[d(hCys)]ILCRLLQ-NH2; disulfide 2-5)", "ER beta (Homo sapiens, UniProt Q92731)", "Ki", 591),
    ("CC[C@H](C)[C@@H]1NC(=O)[C@H](CC(C)C)NC(=O)[C@H](NC(=O)[C@@H](N)CCCNC(=N)N)CSSC[C@@H](C(=O)N[C@@H](CCCNC(=N)N)C(=O)N[C@@H](CC(C)C)C(=O)N[C@@H](CC(C)C)C(=O)N[C@@H](CCC(N)=O)C(N)=O)NC1=O [AKG-II-1] (H-R[dC]LICRLLQ-NH2; disulfide 2-5)", "ER beta (Homo sapiens, UniProt Q92731)", "Ki", 216),
]

(a) CC[C@H](C)[C@@H]1NC(=O)[C@@H](NC(=O)[C@@H](N)CCCCN)CSC[C@@H](C(=O)N[C@@H](CCCNC(=N)N)C(=O)N[C@@H](CC(C)C)C(=O)N[C@@H](CC(C)C)C(=O)N[C@@H](CCC(N)=O)C(N)=O)NC(=O)[C@H](CC(C)C)NC1=O [AKG-I-39]
(b) CC(C)C[C@H](NC(=O)[C@H](CC(C)C)NC(=O)[C@H](CCCNC(=N)N)NC(=O)[C@H]1CSSC[C@H](NC(=O)[C@@H](N)CCCCN)C(=O)N[C@@H](CC(C)C)C(=O)N1)C(=O)N[C@@H](CCC(N)=O)C(N)=O [AKG-I-63] (H-KCL[dC]RLLQ-NH2; disulfide 2-4)
// query Of a and b , which carries the smaller reported Ki figure? Reply with the label of the item you choose.
// result b
(b: 7900 nM, a: 15400 nM)

* * *

Catalogue of compounds with associated pKi
Biological target: ER beta (Homo sapiens, UniProt Q92731)
Assay: competition binding assay against a model linear peptide sequence (estrogen receptor-coactivator interaction), ER beta
Settings: competition binding assay (Lilly Research Labs); read-out: Ki ER β
Experimental: The synthetic helicormimetic peptides designed as antagonists of the estrogen receptor-coactivator interactions were tested in a competition binding assay (Lilly Research Labs) against a model linear peptide sequence. Activities are reported in the Table below in Ki values, with two of the best analogs labeled as PERM-1 and PERM-2, or Peptidomimetic Estrogen Receptor Modulators.
Positions of bridges follow the written chain, without caps; N, C: chain ends. Non-standard residues stand in square brackets, D forms with d. Residues, ends and D or L forms follow the SMILES beside them. Aib = CC(C)(N)C(=O)O
The read-out pKi is expressed as -log10 of concentration in moles per litre.

Consider the reported pKi for these compounds:
# compound, pKi
records = [
    ("CC[C@H](C)[C@@H]1NC(=O)[C@H](NC(=O)[C@@H](N)CCCCN)CSSC[C@H](C(=O)N[C@@H](CCCNC(=N)N)C(=O)N[C@@H](CC(C)C)C(=O)N[C@@H](CC(C)C)C(=O)N[C@@H](CCC(N)=O)C(N)=O)NC(=O)[C@H](CC(C)C)NC1=O [AKG-I-61] (H-K[dC]IL[dC]RLLQ-NH2; disulfide 2-5)", 5.41),
    ("CC[C@H](C)[C@@H]1NC(=O)[C@H](NC(=O)[C@H](CCCCN)NC(=O)C(C)(C)N)CSSC[C@@H](C(=O)N[C@@H](CCCNC(=N)N)C(=O)N[C@@H](CC(C)C)C(=O)N[C@@H](CC(C)C)C(=O)N[C@@H](CCC(N)=O)C(N)=O)NC(=O)[C@H](CC(C)C)NC1=O [AML-I-83/4] (H-[Aib]K[dC]ILCRLLQ-NH2; disulfide 3-6; N-terminus assumed)", 5.85),
]

// query // lookup pKi for CC[C@H](C)[C@@H]1NC(=O)[C@@H](NC(=O)[C@@H](N)CCCNC(=N)N)CSSC[C@@H](C(=O)N[C@@H](CC(C)C)C(=O)N[C@@H](CC(C)C)C(=O)N[C@@H](CCC(N)=O)C(N)=O)NC(=O)[C@H](CCCNC(=N)N)NC(=O)[C@H](CC(C)C)NC1=O [AKG-II-8] (H-RCILRCLLQ-NH2; disulfide 2-6)
// result 5.94

* * *

Target: ER alpha (Homo sapiens)
Sequence (P03372 whole entry): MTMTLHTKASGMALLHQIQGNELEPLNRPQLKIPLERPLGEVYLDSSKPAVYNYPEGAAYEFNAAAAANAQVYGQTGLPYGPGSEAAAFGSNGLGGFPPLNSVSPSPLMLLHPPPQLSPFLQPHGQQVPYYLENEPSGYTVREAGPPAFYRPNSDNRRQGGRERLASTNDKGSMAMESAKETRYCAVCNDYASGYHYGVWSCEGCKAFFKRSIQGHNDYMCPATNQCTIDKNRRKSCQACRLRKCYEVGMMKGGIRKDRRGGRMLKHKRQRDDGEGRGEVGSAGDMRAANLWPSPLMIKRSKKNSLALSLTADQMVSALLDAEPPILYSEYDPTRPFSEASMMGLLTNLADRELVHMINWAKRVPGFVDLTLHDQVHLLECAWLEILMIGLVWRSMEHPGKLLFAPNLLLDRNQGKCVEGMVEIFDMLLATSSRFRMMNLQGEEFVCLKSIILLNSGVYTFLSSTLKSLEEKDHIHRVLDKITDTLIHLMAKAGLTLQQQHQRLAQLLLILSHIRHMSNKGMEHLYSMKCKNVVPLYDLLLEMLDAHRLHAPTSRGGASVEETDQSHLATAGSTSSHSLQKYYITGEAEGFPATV
Assay: competition binding assay against a model linear peptide sequence (estrogen receptor-coactivator interaction), ER alpha
Settings: competition binding assay (Lilly Research Labs); read-out: Ki ER α
Method: The synthetic helicormimetic peptides designed as antagonists of the estrogen receptor-coactivator interactions were tested in a competition binding assay (Lilly Research Labs) against a model linear peptide sequence. Activities are reported in the Table below in Ki values, with two of the best analogs labeled as PERM-1 and PERM-2, or Peptidomimetic Estrogen Receptor Modulators.
Positions of bridges follow the written chain, without caps; N, C: chain ends. Non-standard residues stand in square brackets, D forms with d. Residues, ends and D or L forms follow the SMILES beside them. dPen = CC(C)(S)[C@@H](N)C(=O)O; Pen = CC(C)(S)[C@H](N)C(=O)O
quantity_kind: Ki (nM)
Could you give me the number in nM? Just the number is fine.

Consider the reported Ki for these compounds:
# compound, Ki, nM
records = [
    ("CC(C)C[C@H](NC(=O)[C@H](CC(C)C)NC(=O)[C@H](CCCNC(=N)N)NC(=O)[C@H]1CSSC[C@H](NC(=O)[C@@H](N)CCCCN)C(=O)N[C@@H](CC(C)C)C(=O)N1)C(=O)N[C@@H](CCC(N)=O)C(N)=O [AKG-I-63] (H-KCL[dC]RLLQ-NH2; disulfide 2-4)", 2200),
    ("CC[C@H](C)[C@@H]1NC(=O)[C@H](NC(=O)[C@@H](N)CCCNC(=N)N)C(C)(C)SSC(C)(C)[C@@H](C(=O)N[C@@H](CCCNC(=N)N)C(=O)N[C@@H](CC(C)C)C(=O)N[C@@H](CC(C)C)C(=O)N[C@@H](CCC(N)=O)C(N)=O)NC(=O)[C@H](CC(C)C)NC1=O [AKG-II-11] (H-R[dPen]IL[Pen]RLLQ-NH2; disulfide 2-5)", 78),
]

Okay, next one:
// query // lookup Ki for CC[C@H](C)[C@@H]1NC(=O)[C@H](NC(=O)[C@H](N)CCCCN)CSSC[C@@H](C(=O)N[C@@H](CCCNC(=N)N)C(=O)N[C@@H](CC(C)C)C(=O)N[C@@H](CC(C)C)C(=O)N[C@@H](CCC(N)=O)C(N)=O)NC(=O)[C@H](CC(C)C)NC1=O [AKG-I-28] (H-[dK][dC]ILCRLLQ-NH2; disulfide 2-5)
// result 220

Where these numbers come from: patent US20050054770A1
